Listed here are compounds together with their documented GLP1 secretion stimulation.
Assay: glucagon-like peptide 1 release enhancers, primary assay, NCI-H716 cell line, NPC library (AID 1117341); also: reference of the scale not given here
Conditions: NCI-H716 cells, at 10 µM, active compounds read high
Return type: number; implicit unit %.

>>> observed("NC[C@H]1O[C@H](O[C@@H]2[C@@H](O)[C@@H](O[C@H]3O[C@H](CO)[C@@H](O)[C@H](N)[C@@H]3O)[C@H](N)C[C@@H]2N)[C@H](O)[C@@H](O)[C@H]1O")
-0.1
>>> observed("COc1ccc2c(c1)c(CC(=O)O)c(C)n2C(=O)c1ccc(Cl)cc1")
1.6
>>> observed("N#CC1(c2ccc(F)cc2)CCC(=O)CC1")
1.7
>>> observed("C[C@@H]1CCN(C(=O)[C@H](CCCN=C(N)N)NS(=O)(=O)c2cccc3c2NC[C@H](C)C3)[C@@H](C(=O)O)C1")
1.4
>>> observed("COc1ccc(C(C#N)C(C)C)cc1OC (configuration not stated)")
-3.4
>>> observed("Cc1onc(-c2c(F)cccc2Cl)c1C(=O)Cl")
-1.4
>>> observed("NC(=S)N/N=C/c1cccnc1")
1.9
>>> observed("c1ccc(-c2ccc(C(c3ccccc3)n3ccnc3)cc2)cc1 (configuration not stated)")
8.2
>>> observed("O=C(c1ccccc1)C(O)c1ccccc1 (configuration not stated)")
-0.3
>>> observed("COc1ccnc2c1CCCCC2S(=O)c1nc2ccccc2[nH]1 (configuration not stated)")
9.2

query: Please look up its GLP1 secretion stimulation: COc1ccc(OC(=O)N(CC(=O)O)Cc2ccc(OCCc3nc(-c4ccccc4)oc3C)cc2)cc1
result: 51.7

query: Please look up its GLP1 secretion stimulation: Cc1c(C(=O)NCCO)[n+](=O)c2ccccc2n1[O-]
result: -0.4

query: Please look up its GLP1 secretion stimulation: CC(=O)Nc1ccc(S(=O)(=O)Nc2cc(C)on2)cc1
result: 0.1

query: Please look up its GLP1 secretion stimulation: CC(CN1c2ccccc2Sc2ccccc21)N(C)C (configuration not stated)
result: 5.7

query: Please look up its GLP1 secretion stimulation: Cc1c(C)c2c(c(C)c1OC(=O)CCC(=O)OCCO)CC[C@@](C)(CCC[C@H](C)CCC[C@H](C)CCCC(C)C)O2
result: 23

query: Please look up its GLP1 secretion stimulation: Clc1ccccc1-c1nc(-c2ccncc2)no1
result: -2.9

The measurements presented in this section are drawn from PubChem BioAssay.
